Measured DPX2 Viability @ 25 μM values are reported for all entries that follow.
Tested on: DPX2 cells
Settings: human
assayMetric: DPX2 Viability @ 25 μM (%)

[[record]]
compound = "CO[C@H]1/C=C/O[C@@]2(C)Oc3c(C)c(O)c4c(=O)c(c5oc6cc(C)cc(N7CCN(C(=O)c8cccc(-n9ccnc9)c8)CC7)c6nc-5c4c3C2=O)NC(=O)/C(C)=C\\C=C\\[C@H](C)[C@H](O)[C@@H](C)[C@@H](O)[C@@H](C)[C@H](OC(C)=O)[C@@H]1C [Compound 30f]"
assaymetric = "DPX2 Viability @ 25 μM"
unitofmeasure = "%"
recordedvalue = 64

[[record]]
compound = "CO[C@H]1/C=C/O[C@@]2(C)Oc3c(C)c(O)c4c(=O)c(c5oc6cc(N7CCOC(CN(C)C)C7)cc(OCc7ccc(CN8CCOCC8)cc7)c6nc-5c4c3C2=O)NC(=O)/C(C)=C\\C=C\\[C@H](C)[C@H](O)[C@@H](C)[C@@H](O)[C@@H](C)[C@H](OC(C)=O)[C@@H]1C (stereo partly shown) [Compound 17o]"
assaymetric = "DPX2 Viability @ 25 μM"
unitofmeasure = "%"
recordedvalue = 42

[[record]]
compound = "CO[C@H]1/C=C/O[C@@]2(C)Oc3c(C)c(O)c4c(=O)c(c5oc6cccc(OCc7ccc(CN8CCN(C)CC8)cc7)c6nc-5c4c3C2=O)NC(=O)/C(C)=C\\C=C\\[C@H](C)[C@H](O)[C@@H](C)[C@@H](O)[C@@H](C)[C@H](OC(C)=O)[C@@H]1C [Compound 16e]"
assaymetric = "DPX2 Viability @ 25 μM"
unitofmeasure = "%"
recordedvalue = 41

[[record]]
compound = "CO[C@H]1/C=C/O[C@@]2(C)Oc3c(C)c(O)c4c(=O)c(c5oc6cc(N7CCN(C8CCN(C)CC8)CC7)cc(OCc7ccc(CN8CCOCC8)cc7)c6nc-5c4c3C2=O)NC(=O)/C(C)=C\\C=C\\[C@H](C)[C@H](O)[C@@H](C)[C@@H](O)[C@@H](C)[C@H](OC(C)=O)[C@@H]1C [Compound 17h]"
assaymetric = "DPX2 Viability @ 25 μM"
unitofmeasure = "%"
recordedvalue = 83

[[record]]
compound = "CO[C@H]1/C=C/O[C@@]2(C)Oc3c(C)c(O)c4c(=O)c(c5oc6cccc(OCc7cccc(CN8CCN(C(=O)Cn9ccnc9)CC8)c7)c6nc-5c4c3C2=O)NC(=O)/C(C)=C\\C=C\\[C@H](C)[C@H](O)[C@@H](C)[C@@H](O)[C@@H](C)[C@H](OC(C)=O)[C@@H]1C [Compound 11e]"
assaymetric = "DPX2 Viability @ 25 μM"
unitofmeasure = "%"
recordedvalue = 96

[[record]]
compound = "CO[C@H]1/C=C/O[C@@]2(C)Oc3c(C)c(O)c4c(=O)c(c5oc6cc(N7CCN(C)CC7)cc(OCCCCN7CCN(C(=O)Cn8ccnc8)CC7)c6nc-5c4c3C2=O)NC(=O)/C(C)=C\\C=C\\[C@H](C)[C@H](O)[C@@H](C)[C@@H](O)[C@@H](C)[C@H](OC(C)=O)[C@@H]1C"
assaymetric = "DPX2 Viability @ 25 μM"
unitofmeasure = "%"
recordedvalue = 111

[[record]]
compound = "CO[C@H]1/C=C/O[C@@]2(C)Oc3c(C)c(O)c4c(=O)c(c5oc6cc(N7CCN(C(=O)C(C)(C)C)CC7)cc(OCc7ccc(CN8CCOCC8)cc7)c6nc-5c4c3C2=O)NC(=O)/C(C)=C\\C=C\\[C@H](C)[C@H](O)[C@@H](C)[C@@H](O)[C@@H](C)[C@H](OC(C)=O)[C@@H]1C [Compound 17f]"
assaymetric = "DPX2 Viability @ 25 μM"
unitofmeasure = "%"
recordedvalue = 71

